- Tested on: human embryonic kidney cells (HEK 293)
- protocol.details: HEK 293 cytotoxicity assay
- Assay type: cell-based
- condition.info: concentration at 50% cytotoxicity, CO-ADD
No end group written: not given here.
quantity.name: HEK293 (CC50) (µM)
Respond with the bare value in µM.

                          substance                           tested_system  unit_text  numeric_readout
0  KLLKLLKKLVGALG-NH2 [compound 15]  human embryonic kidney cells (HEK 293)         µM               12
1  KLLKLLKKLLGALG-NH2 [compound 16]  human embryonic kidney cells (HEK 293)         µM                7

Please look at the following substance next.
query: Tell me its HEK293 (CC50) on human embryonic kidney cells (HEK 293): KLLKLLKKLLKLLK-NH2 [Klk14, reference compound]
result: 10
